tgt: T1, human CD38 Fc-fusion aa 45-300 (human, UniProt P28907 45-300)
T1 construct: Expressed in HEK293 behind a human Vkappa leader, which is left out here; also called CD38-Fc fusion protein; CD38 Fc-Fusion protein
assay-overview: SPR (Biacore), Fab on immobilized CD38 Fc-fusion

[
  {
    "binder": "MOR03101 Fab (Fab, V domains shown, Fab format) VH: QVQLKESGPALVKPTQTLTLTCTFSGFSLSTSRVGVSWIRQPPGKALEWLAHIDWNDDKYYSTSLKTRLTISKDTSKNQVVLTMTNMDPVDTATYYCAREDRLLGGYGYDVWGQGTLVTVSS VL: DIELTQPPSVSVAPGQTARISCSGDSLGSYYVHWYQQKPGQAPVLVIGDDTKRPSGIPERFSGSNSGNTATLTISGTQAEDEADYYCGSRTGYNNSFVFGGGTKLTVLG",
    "Kd / nM": 314
  },
  {
    "binder": "MOR03085 Fab (Fab, V domains shown, Fab format) VH: QVQLVQSGAEVKKPGASVKVSCKASGYTFTGYYINWVRQAPGQGLEWMGWIFPNGGSTGYAQKFQGRVTMTRDTSISTAYMELSSLRSEDTAVYYCARGNIFIFDYWGQGTLVTVSS VL: DIVLTQPPSVSGAPGQRVTISCSGSSSNIGNNYVSWYQQLPGTAPKLLIYGDDQRPSGVPDRFSGSKSGTSASLAITGLQSEDEADYYCQSYGTFSSFVFGGGTKLTVLG",
    "Kd / nM": 122
  }
]
